- System: NCI-H226 lung
- Method notes: NCI-60 one-dose screen, 48 h (100 = growth as untreated, 0 = no growth, -100 = all killed)
- Study conditions: 10 µM unless noted
About 83,000 compounds went through this panel and 20% of them were active in at least one assay; those are over-represented in the sample as a whole.
Please mark fulfilled if the recorded growth is equal to or greater than 80%, and not fulfilled if it falls below.

Task item: Could you please find out whether COc1cccc(Nc2nc(SC)nc(-c3cccc([N+](=O)[O-])c3)c2C#N)c1 has growth that meets 80% or exceeds it?
Reply: not fulfilled

Task item: Is growth at least 80%? Consider CCc1c(Nc2ccccc2C)nc(N)[nH]c1=O
Reply: fulfilled

Task item: Can O=C(COc1cccc(/C=C2\COc3ccc(Cl)cc3C2=O)c1)c1ccc(Cl)cc1 be said to have growth at or above 80%?
Reply: fulfilled

Task item: API: above_or_equal(metric=growth, cutoff=80%) for item Clc1ccc2c(NCCCNc3nc(-n4ccnc4)nc4ccccc34)ccnc2c1
Reply: fulfilled

Task item: Could you verify whether the entry CC(=O)O[C@H]1C(=O)[C@@]2(C)[C@H]([C@H](OC(=O)c3ccccc3)[C@]3(O)C[C@H](OC(=O)[C@H](OC(=O)CCC(=O)OC4CCC(S/N=C(N)/N=C(\N)N(C)C)CC4)[C@@H](NC(=O)c4ccccc4)c4ccccc4)C(C)=C1C3(C)C)[C@]1(OC(C)=O)CO[C@@H]1C[C@@H]2O (some centres undefined) shows growth of no less than 80%?
Reply: not fulfilled

Task item: Is growth at least 80%? Consider O=C(N=Nc1c(O)[nH]c2ccc(Br)cc12)c1cc(-c2ccccc2)on1
Reply: fulfilled

Task item: Hello, I need to know if C=CC(COC(c1ccccc1)(c1ccccc1)c1ccccc1)N(CC)CC (centres undefined) has measured growth not below 80%. Thanks!
Reply: not fulfilled

Task item: hey, is growth for this one >= 80%? Clc1ccc2nc3nc4ccc[nH]c4cc3c2c1
Reply: fulfilled

Task item: Can COc1ccc2c(c1)CC/C(=C\c1cncc(Br)c1)C2=O be said to have growth at or above 80%?
Reply: fulfilled
